System: MCF-7 human breast cancer cells
MEASUREMENT NOTES: Inhibition of MCF-7 cell proliferation (MTT)
Format: cell-based
TEST CONTEXT: 100 μg/ml, 48 h, 5×10^5 cells/ml
Hi! Could you tag entries with % INHIBITION of MCF-7 human breast cancer cell proliferation below 10% as YES, and those at or above as NO? Much appreciated.

Solved cases below.
# SUBSTANCE, MEASUREMENT TARGET, ASSIGNED LABEL
records = [
    ("TGTGTG [SEQ ID NO:9 phosphorothioate] (phosphorothioate backbone)", "MCF-7 human breast cancer cells", "YES"),
    ("GGGTGG [SEQ ID NO:25 phosphorothioate]", "MCF-7 human breast cancer cells", "NO"),
    ("GGTGGG [SEQ ID NO:24]", "MCF-7 human breast cancer cells", "NO"),
    ("TTGTTT [SEQ ID NO:26 phosphorothioate]", "MCF-7 human breast cancer cells", "YES"),
    ("GGGTGG [SEQ ID NO:25]", "MCF-7 human breast cancer cells", "NO"),
]

Input: Dear colleague, could you confirm whether % INHIBITION of MCF-7 human breast cancer cell proliferation of GoGoGoTsGoGo falls below 10%? Thanks.
Output: YES

Input: # TODO verify % INHIBITION of MCF-7 human breast cancer cell proliferation < 10% strictly for this substance: GGTGGG [SEQ ID NO:24 phosphorothioate]
Output: NO

Input: State whether 10% exceeds % INHIBITION of MCF-7 human breast cancer cell proliferation recorded for GoGsGoToGsGo .
Output: NO

Input: # check: % INHIBITION of MCF-7 human breast cancer cell proliferation < 10% for TTTGTT [SEQ ID NO:23]
Output: YES

Input: Input GsGsGoToGsGs ; condition: % INHIBITION of MCF-7 human breast cancer cell proliferation strictly below 10%. Does it hold?
Output: YES

Input: Bench note: check whether GTGTGT [SEQ ID NO:10] shows % INHIBITION of MCF-7 human breast cancer cell proliferation below 10%
Output: NO
